Test system: MDA-MB-468 breast
Assay: NCI tumour cell line growth inhibition, 48 h
attribute measured: TGI

Give the measured TGI for `CN(c1ccc(NC(=O)NCCN2CCOCC2)cc1)c1ccnc(Nc2ccc(CS(C)(=O)=O)cc2)n1`
> 25 µM

Dear colleague, please send me the reported TGI for `Nc1ccn([C@@H]2S[C@H](CO)[C@@H](O)[C@@H]2F)c(=O)n1` when you can.
> 88.6 µM

// Input: `CCN(CC)C(=O)CCCCCn1c2ccccc2c2c3c(c4c5ccccc5[nH]c4c21)C(=O)N(O)C3=O` . Output its TGI only.
> 100 µM
